The measured values listed here are drawn from patent USRE49847.

Overview of reported MFI across a group of binders:
Biological target: T1, soluble CD22-Fc (R&D Systems) (UniProt P20273 20-687)
T1 construct: Bought reagent used to stain CD22 CARs; not shown: Fc part; detected with anti-human IgG Fc-gamma secondary
T1 sequence (looked up): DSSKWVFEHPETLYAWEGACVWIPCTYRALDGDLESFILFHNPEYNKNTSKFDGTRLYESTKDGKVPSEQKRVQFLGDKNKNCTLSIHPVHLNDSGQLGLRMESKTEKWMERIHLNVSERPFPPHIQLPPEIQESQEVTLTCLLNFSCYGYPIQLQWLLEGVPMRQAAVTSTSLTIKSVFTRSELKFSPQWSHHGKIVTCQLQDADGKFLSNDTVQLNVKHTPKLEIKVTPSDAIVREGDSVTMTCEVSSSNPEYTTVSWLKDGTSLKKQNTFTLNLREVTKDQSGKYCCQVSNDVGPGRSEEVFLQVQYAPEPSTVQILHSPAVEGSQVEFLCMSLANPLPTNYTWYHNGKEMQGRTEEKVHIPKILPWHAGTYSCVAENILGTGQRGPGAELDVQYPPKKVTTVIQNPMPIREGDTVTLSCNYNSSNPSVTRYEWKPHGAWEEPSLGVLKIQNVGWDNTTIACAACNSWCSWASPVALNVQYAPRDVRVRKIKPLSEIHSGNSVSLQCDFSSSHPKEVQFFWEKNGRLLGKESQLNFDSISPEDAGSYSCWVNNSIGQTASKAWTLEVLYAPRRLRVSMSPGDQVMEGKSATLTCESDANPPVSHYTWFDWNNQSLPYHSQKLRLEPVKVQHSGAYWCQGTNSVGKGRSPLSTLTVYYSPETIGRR
Experiment: flow cytometry, soluble CD22-Fc plus anti-human Fc-PE on CAR-transduced primary T cells (FIG. 4)

The examples below pair each entry with its known result.
CD22-57 CAR (other, CAR on primary human T cells; not shown: hinge, transmembrane, 4-1BB and CD3zeta parts of the CAR) EVQLQQSGPGLVKPSQTLSLTCAISGDSVSNNNAAWNWIRQSPSRGLEWLGRTYHRSTWYNDYVGSVKSRITINPDTSKNQFSLQLNSVTPEDTAVYYCARETDYGDYGAFDIWGQGTTVTVSSGGGGSGGGGSGGGGSQSALTQPASVSGSPGQSITISCTGSRNDIGAYESVSWYQQHPGNAPKLIIHGVNNRPSGVFDRFSVSQSGNTASLTISGLQAEDEADYYCSSHTTTSTLYVFGTGTKVTVL :: > 20000
CD22-58 CAR (other, CAR on primary human T cells; not shown: hinge, transmembrane, 4-1BB and CD3zeta parts of the CAR) EVQLQQSGPGLVNPSQTLSITCAISGDSVSSNSAAWNWIRQSPSRGLEWLGRTFYRSKWYNDYAVSVKGRITISPDTSKNQFSLQLNSVTPEDTAVYYCAGGDYYYGLDVWGQGTTVTVSSGGGGSGGGGSGGGGSQSALTQPASVSGSPGQSITISCTGSSSDVGGYNSVSWYQQHPGKAPKLMIYEVINRPSGVSHRFSGSKSGNTASLTISGLQAEDEADYYCSSYTSSSTYVFGTGTKVTVL :: 5700
CD22-61 CAR (other, CAR on primary human T cells; not shown: hinge, transmembrane, 4-1BB and CD3zeta parts of the CAR) QVQLQESGPGLVKPSQTLSLTCAISGDSVLSNSDTWNWIRQSPSRGLEWLGRTYHRSTWYDDYASSVRGRVSINVDTSKNQYSLQLNAVTPEDTGVYYCARDRLQDGNSWSDAFDVWGQGTMVTVSSGGGGSGGGGSGSGGSQSALTQPASVSGSPGQSITISCTGTSSDVGGYNYVSWYQQHPGKAPKLMIYEVSNRPSGVSNRFSGSKSGNTASLTISGLQAEDEADYYCSSYTSSSTLYVFGTGTKVTVL :: > 20000
CD22-62 CAR (other, CAR on primary human T cells; not shown: hinge, transmembrane, 4-1BB and CD3zeta parts of the CAR) EVQLQQSGPGLVKPSQTLSLTCAISGDSVLSNSDTWNWIRQSPSRGLEWLGRTYHRSTWYDDYASSVRGRVSINVDTSKNQYSLQLNAVTPEDTGVYYCARDRLQDGNSWSDAFDVWGQGTMVTVSSGGGGSGGGGSGGGGSQSALTQPASVSGSPGQSITISCTGTSSDVGGYNYVSWYQQHPGKAPKLMIYDVSNRPSGVSNRFSGSKSGNTASLTISGLQAEDEADYYCSSYTSSSTLYVFGTGTKVTVL :: > 20000
CD22-59 CAR (other, CAR on primary human T cells; not shown: hinge, transmembrane, 4-1BB and CD3zeta parts of the CAR) EVQLQQSGPGLVKPSQTLSLTCAISGDSVLSNSDTWNWIRQSPSRGLEWLGRTYHRSTWYDDYASSVRGRVSINVDTSKNQYSLQLNAVTPEDTGVYYCARDRLQDGNSWSDAFDVWGQGTMVTVSSGGGGSGGGGSGGGGSQSALTQPASVSGSPGQSITISCTGSSSDIGGFNYVSWYQQHAGEAPKLMIYEVTNRPSGVSDRFSGSKSDNTASLTISGLQAEDEADYYCSSYASGSPLYVFGTGTKVTVL :: > 20000

Record request: MFI value, item CD22-53 CAR (other, Control CD22 CAR; not shown: hinge, transmembrane, 4-1BB and CD3zeta parts of the CAR) EVQLQQSGPGLVKPSQTLSLTCAISGDSVSSNSAAWNWIRQSPSRGLEWLGRTYYRSKWYSDYAVSVKSRITINPDTSKNQFSLQLNSVTPEDTAVYYCARDPYDFWSGYPDAFDIWGQGTMVTVSSGGGGSGGGGSGGGGSQSALTQPASVSGSPGQSITISCTGTSSDVGGYNYVSWYQQHPGKAPKVIISEVNNRPSGVSHRFSGSKSGNTASLTISGLQAEDEADYFCSSYTSGRTLYVFGTGSKVTVLG
> 20000

Record request: MFI value, item CD22-60 CAR (other, CAR on primary human T cells; not shown: hinge, transmembrane, 4-1BB and CD3zeta parts of the CAR) EVQLQQSGPGLVKPSQTLSLTCAISGDSVLSNSDTWNWIRQSPSRGLEWLGRTYHRSTWYDDYASSVRGRVSINVDTSKNQYSLQLNAVTPEDTGVYYCARDRLQDGNSWSDAFDVWGQGTMVTVSSGGGGSGGGGSGSGGSQSALTQPASVSGSPGQSITFSCTGTSSDIGGYNYVSWYQQHPGKAPKLMIYEVSNRPSGVSNRFSGTKSGNTASLTISGLQAEDEADYYCSSYTSSSTLYVFGTGTKLTVL
> 20000

Record request: MFI value, item CD22-63 CAR (other, CAR on primary human T cells; not shown: hinge, transmembrane, 4-1BB and CD3zeta parts of the CAR) EVQLQQSGPGLVKPSQTLSLTCAISGDSVLSNSDTWNWIRQSPSRGLEWLGRTYHRSTWYDDYASSVRGRVSINVDTSKNQYSLQLNAVTPEDTGVYYCARDRLQDGNSWSDAFDVWGQGTMVTVSSGGGGSGGGGSGGGGSQSALTQPASVSGSPGQSITISCTGTSSDVGGYNYVSWYQQHPGKAPKLMIYEVSNRPSGVSNRFSGSKSGNTASLTISGLQAEDEADYYCSSYTSSSTLYIFGTGTKVTVL
> 20000

Record request: MFI value, item CD22-64 CAR (other, CAR on primary human T cells; not shown: hinge, transmembrane, 4-1BB and CD3zeta parts of the CAR) EVQLQQSGPGLVKPSQTLPLTCAISGDSVLSNSDTWNWIRQSPSRGLEWLGRTYHRSTWYDDYASSVRGRVSINVDTSKNQYSLQLNAVTPEDTGVYYCARVRLQDGNSWSDAFDVWGQGTMVTVSSGGGGSGGGGSGGGGPQSALTQPASASGSPGQSVTISCTGTSSDVGGYNYVSWYQQHPGKAPKLMIYDVSNRPSGVSNRFSGSKSGNTASLTISGLQAEDEADYYCSSYTSSSTLYVFGTGTQLTVL
> 20000
